Entries annotated with measured Biodistribution: Spleen
tested on: NRG-mice bearing LNCaP tumors; test: Biodistribution (and PET/SPECT imaging) in NRG-mice bearing LNCaP tumors; format: in vivo; settings: 72 h p.i., Avg
*1 amine or outer side, *2 acyl side, *3 side chain or, on linkers, in order; H or OH if unused. Where a SMILES comes first, the peptide text is derived from it. [ ]: non-standard residue; d: D form. The star is where a group is joined. ξ: configuration not given here. ξLys(Nα-CO-ξAad) = O=C(O)CCCC(NC(=O)NC(CCCCN*)C(=O)O)C(=O)O; Butanoyl(4-(4-NO2Ph)) = O=C(CCCc1ccc([N+](=O)[O-])cc1)*; DOTA = O=C(O)CN1CCN(CC(=O)O)CCN(CC(=O)*)CCN(CC(=O)O)CC1; Butanoyl(4-(4-MeO-phenyl)) = COc1ccc(CCCC(=O)*)cc1; ξAla(9-anthryl) = NC(Cc1c2ccccc2cc2ccccc12)C(=O)O; X2 = O=C(NC(CCCCN*)C(=O)O)NC(CC(F)C(=O)O)C(=O)O; X1 = O=C(C1CCC(CN[*:1])CC1)[*:2]; ξK = NCCCCC(N)C(=O)O
Quick note: give the figure in % ID/g, leave out the unit.

A selection of reference data follows.
{"molecule": "O=C([O-])CN1CCN(CC(=O)[O-])CCN(CC(=O)NCCCCC(NC(=O)CNC(=O)CCCc2ccc([N+](=O)[O-])cc2)C(=O)NCC(=O)NCC2CCC(C(=O)NC(Cc3c4ccccc4cc4ccccc34)C(=O)NCCCCC(NC(=O)NC(CCCC(=O)O)C(=O)O)C(=O)O)CC2)CCN(CC(=O)[O-])CC1.[225Ac+3] (stereo not drawn) [^225Ac-CCZ02017] ({Butanoyl(4-(4-NO2Ph))}-G[ξK](DOTA)G[X1][ξAla(9-anthryl)]-{ξLys(Nα-CO-ξAad)})", "measuredParameter": "Biodistribution: Spleen", "resultUnit": "% ID/g", "measuredNumber": 0.93}
{"molecule": "O=C([O-])CN1CCN(CC(=O)[O-])CCN(CC(=O)NCCCCC(NC(=O)CNC(=O)CCCc2ccc([N+](=O)[O-])cc2)C(=O)NCC(=O)NCC2CCC(C(=O)NC(Cc3c4ccccc4cc4ccccc34)C(=O)NCCCCC(NC(=O)NC(CCCC(=O)O)C(=O)O)C(=O)O)CC2)CCN(CC(=O)[O-])CC1.[177Lu+3] (stereo not drawn) [^177Lu-CCZ02017] ({Butanoyl(4-(4-NO2Ph))}-G[ξK](DOTA)G[X1][ξAla(9-anthryl)]-{ξLys(Nα-CO-ξAad)})", "measuredParameter": "Biodistribution: Spleen", "resultUnit": "% ID/g", "measuredNumber": 0.38}

Consider the additional molecule presented here.
Q: Give recorded Biodistribution: Spleen with NRG-mice bearing LNCaP tumors for the following molecule: COc1ccc(CCCC(=O)NCC(=O)NC(CCCCNC(=O)CN2CCN(CC(=O)[O-])CCN(CC(=O)[O-])CCN(CC(=O)[O-])CC2)C(=O)NCC(=O)NCC2CCC(C(=O)NC(Cc3c4ccccc4cc4ccccc34)C(=O)NCCCCC(NC(=O)NC(CC(F)C(=O)O)C(=O)O)C(=O)O)CC2)cc1.[177Lu+3] (stereo not drawn) [^177Lu-CCZ02008] ({Butanoyl(4-(4-MeO-phenyl))}-G[ξK](DOTA)G[X1][ξAla(9-anthryl)]-X2)
Result: 0.83

Values compiled from patent US20250186627A1.
